Test system: MS2 coat protein
methodDescription: apparent KD of MS2 coat protein; higher = weaker reporter binding
measurementConditions: Eterna round: R107; input ligand: theophylline 20 uM
Decide by apparent KD of MS2 coat protein: equal to or exceeding 40 nM means YES, less means NO.

Kindly determine if apparent KD of MS2 coat protein recorded for ACAUGAGGAUCACCCAUGUACGGUAUCAAUCGAGGACCGGUACGGCCGCCACUCGGAAAUAGAAGCGAUUAUUAGUGUUCUUUGU [Same State - Tryptophan A / A] is above or exactly 40 nM. NO

Please check the record AAGAAGUUUUGAUUUUUAUGAAGUAGUGAUACCAGUUAAGAAAGAGACCCUUGGCAGCGCAACAUGAGGAUCACCCAUGUAAGAA [Another radom design] and state if its apparent KD of MS2 coat protein is at or above 40 nM. NO

Does the reported apparent KD of MS2 coat protein for GGGCCCGGGCCGCGCGCGGCCCGGGCCCAACGAGGACCGGUACGGCCGCCACUCGAACGAGUGGGUACAUGAGGAUCACCCAUGU [Aaa] fall at or above the 40 nM mark? YES

# bool: apparent KD of MS2 coat protein of ACUAGCGCACAUGAUACCAGCGACAUGAGGAUCACCCAUGUACGGCGUGUAUCGAAAGGUUGCCCUUGGCAGCAUGAUAGCGCUG [Cebiri] >= 40 nM NO

Hi, just wondering whether UGUAUGUGAUUUGAUACCAGACCAGCUGGUGGUACAUGAGGAUCACCCAUGUAGGUUUGGGUCCCUUGGCAGCAAAUCGCAUACU [SSTheo B #24] shows apparent KD of MS2 coat protein of 40 nM or higher. YES
